Target: T1, recombinant human TL1A (human, UniProt O95150 71-251)
T1 chain: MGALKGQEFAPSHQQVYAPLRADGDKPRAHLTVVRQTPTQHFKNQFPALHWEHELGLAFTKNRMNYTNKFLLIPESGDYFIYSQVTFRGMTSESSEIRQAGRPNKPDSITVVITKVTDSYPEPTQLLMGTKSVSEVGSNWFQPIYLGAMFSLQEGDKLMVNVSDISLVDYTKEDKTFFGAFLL
Assay method text: cell-based or functional assay
Quantity measured: Whole blood IFNγ assay, Bioactivity relative to TL1A-0002 (fold)

- Binder: "TL1A-0292 (antibody, human IgG1, kappa, V domains shown, human IgG1 effector-function-minimized/kappa) VH: QVQLVQSGAEVKKPGASVKVSCKASGYDFTYYGVSWVRQAPGQGLEWMGWISTYNTVTHYAPSLQGRVTMTTDTSTSTAYMELRSLRSDDTAVYYCARESYYGSGAFRGGMDVWGQGTTVTVSS VL: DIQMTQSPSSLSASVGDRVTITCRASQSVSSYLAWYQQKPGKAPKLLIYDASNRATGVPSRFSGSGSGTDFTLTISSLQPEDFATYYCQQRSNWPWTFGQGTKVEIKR"
  Unit of measurement: "fold"
  Recorded value: 1.1
- Binder: "TL1A-0293 (antibody, human IgG1, kappa, V domains shown, human IgG1 effector-function-minimized/kappa) VH: QVQLVQSGAEVKKPGASVKVSCKASGYDFTYYGVSWVRQAPGQGLEWMGWISTYNTVTHYAPSLQGRVTMTTDTSTSTAYMELRSLRSDDTAVYYCARESYYGSGAHRGGMDVWGQGTTVTVSS VL: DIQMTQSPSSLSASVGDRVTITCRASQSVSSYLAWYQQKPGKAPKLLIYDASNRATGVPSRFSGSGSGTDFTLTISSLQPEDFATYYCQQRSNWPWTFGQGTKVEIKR"
  Unit of measurement: "fold"
  Recorded value: 1.2
- Binder: "TL1A-0287 (antibody, human IgG1, kappa, V domains shown, human IgG1 effector-function-minimized/kappa) VH: QVQLVQSGAEVKKPGASVKVSCKASGYDFTYYGVSWVRQAPGQGLEWMGWISTYNDNTHYAQKLQGRVTMTTDTSTSTAYMELRSLRSDDTAVYYCARESYYGSGAHRGGMDVWGQGTTVTVSS VL: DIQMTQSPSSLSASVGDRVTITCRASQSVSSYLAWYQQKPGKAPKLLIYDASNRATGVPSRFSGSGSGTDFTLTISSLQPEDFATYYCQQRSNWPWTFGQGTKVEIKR"
  Unit of measurement: "fold"
  Recorded value: 1.2
